The measured values listed here are drawn from patent US11839613B2.

Please respond with reported IC50 for every item in the list.
biological target: PTGER4 (EP4) (Homo sapiens (Human)); test: cell-based
Sequence (P35408 whole entry): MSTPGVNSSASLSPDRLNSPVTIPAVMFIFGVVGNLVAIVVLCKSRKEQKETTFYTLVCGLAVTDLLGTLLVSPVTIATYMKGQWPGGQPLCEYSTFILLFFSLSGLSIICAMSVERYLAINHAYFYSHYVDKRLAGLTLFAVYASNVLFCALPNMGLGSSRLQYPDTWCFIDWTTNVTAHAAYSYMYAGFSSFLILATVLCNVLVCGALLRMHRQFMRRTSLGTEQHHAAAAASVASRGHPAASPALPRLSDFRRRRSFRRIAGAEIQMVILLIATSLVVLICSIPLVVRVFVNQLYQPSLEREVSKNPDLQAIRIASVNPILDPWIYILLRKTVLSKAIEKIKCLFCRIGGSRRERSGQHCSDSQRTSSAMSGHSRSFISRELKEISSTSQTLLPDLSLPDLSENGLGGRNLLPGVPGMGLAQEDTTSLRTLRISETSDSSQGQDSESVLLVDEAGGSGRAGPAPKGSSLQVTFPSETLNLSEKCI
Answers are plain numbers, in nM.

Previously resolved entries follow.
Smiles record | Test result
CSc1cc(-c2cc(NCCc3ccc4scc(Cl)c4c3)ncn2)ccc1C(=O)O | 60
CCCc1cc(-c2cc(NCCc3cc4c(cc3OCC)OCCO4)ncn2)ccc1CC(=O)O | 61
CCOc1cc(-c2cc(NCCc3ccc4ccccc4c3C)ncn2)ccc1-c1noc(=S)[nH]1 | 23
CCc1nc(-c2cc(NCCc3ccc4ccccc4c3C)ncn2)sc1C(=O)O | 79
CCOc1cc(-c2cc(NCCc3cc(F)c4sccc4c3)ncn2)ccc1OCCC(=O)O | 23

Could you report IC50 for every entry in the following list?
1. CCOc1cc(-c2cc(NCCc3cc(F)c4sccc4c3)ncn2)ccc1-c1noc(=O)[nH]1
2. CCOc1cc(-c2cc(NCCc3cc4c(cc3OC)OCCCO4)ncn2)sc1C(=O)O

1: 21; 2: 58

Hey, quick one: what's IC50 for each of these?
1. CSc1cc(-c2cc(NCCc3ccc4[nH]ccc4c3)ncn2)ccc1C(=O)O
2. CCOc1cc(-c2cc(NCCc3ccc4scc(C)c4c3)ncn2)ccc1CC(=O)O
3. CC(C)Cc1cc(-c2cc(NCCc3ccc4sccc4c3F)ncn2)ccc1CC(=O)O
4. CCOc1cc(-c2cc(NCCc3cc4ccsc4cc3OC)ncn2)cc(F)c1CC(=O)O
5. CCc1cc(-c2cc(NCCc3c(OC)cc4ccccc4c3C)ncn2)ccc1C(=O)O
6. CCOc1cc(-c2cc(NCCc3cc(F)c4sccc4c3)ncn2)ccc1CC(=O)O
7. CCOc1cc(-c2cc(NCCc3ccc4c(c3)OCCC4)ncn2)sc1C(=O)O

1: 1180; 2: 2120; 3: 57; 4: 88; 5: 108; 6: 59; 7: 13
